Test system: Bifidobacterium longum subsp. longum
Experiment: growth AUC relative to DMSO control (median of replicates) (fraction); higher = more growth (less inhibition), active = hit call of the paper
Settings: 20 µM; 24 h
Measured Endpoint: growth AUC
Numbers only.

Field: example entries. Status: answers known.
structure_as_smiles=NC(=S)c1c(Cl)cccc1Cl measured_endpoint="growth AUC" reported_result=1.05
structure_as_smiles=C#CCN1C(=O)COc2cc(F)c(N3C(=O)C4=C(CCCC4)C3=O)cc21 measured_endpoint="growth AUC" reported_result=1.02

I'm hoping you can list growth AUC for every molecule here, please.
1. O=[N+]([O-])c1ccc(Oc2ccc(C(F)(F)F)cc2[N+](=O)[O-])cc1
2. CCCN(CCC)c1c([N+](=O)[O-])cc(S(N)(=O)=O)cc1[N+](=O)[O-]

Result:
[0.936, 0.987]

Q: // map CNc1nc(C)c(C)c(OC(=O)N(C)C)n1 to recorded growth AUC (system: Bifidobacterium longum subsp. longum)
Result: 1.04
